TEST_PROTOCOL: Relative activity of purified combined mutants compared to wild type DAOCS
Type: biochemical
CONDITIONS_USED: 1 mM penicillin G; activity of wild-type DAOCS as 100%
Just a reminder that ties go to class 0: only Relative Activities strictly below 600% counts as class 1.

[in] Criterion: Relative Activities strictly below 600%. Is it met by YS100: combined DAOCS mutant, mutated sites 79E, 275I, 305L (protein, UniProt P18548 1-311, looked up, variant G79E V275I I305L) Deacetoxycephalosporin C …: MDTTVPTFSLAELQQGLHQDEFRRCLRDKGLFYLTDCGLTDTELKSAKDLVIDFFEHGSEAEKRAVTSPVPTMRRGFTELESESTAQITNTGSYSDYSMCYSMGTADNLFPSGDFERIWTQYFDRQYTASRAVAREVLRATGTEPDGGVEAFLDCEPLLRFRYFPQVPEHRSAEEQPLRMAPHYDLSMVTLIQQTPCANGFVSLQAEVGGAFTDLPYRPDAVLVFCGAIATLVTGGQVKAPRHHVAAPRRDQIAGSSRTSSVFFLRPNADFTFSIPLARECGFDVSLDGETATFQDWIGGNYVNLRRTSKA ?
[out] class 1

[in] Is Relative Activities strictly under 600% for the entry YS88: combined DAOCS mutant, mutated sites 79E, 275I, 281Y (protein, UniProt P18548 1-311, looked up, variant G79E V275I C281Y) Deacetoxycephalosporin C …: MDTTVPTFSLAELQQGLHQDEFRRCLRDKGLFYLTDCGLTDTELKSAKDLVIDFFEHGSEAEKRAVTSPVPTMRRGFTELESESTAQITNTGSYSDYSMCYSMGTADNLFPSGDFERIWTQYFDRQYTASRAVAREVLRATGTEPDGGVEAFLDCEPLLRFRYFPQVPEHRSAEEQPLRMAPHYDLSMVTLIQQTPCANGFVSLQAEVGGAFTDLPYRPDAVLVFCGAIATLVTGGQVKAPRHHVAAPRRDQIAGSSRTSSVFFLRPNADFTFSIPLAREYGFDVSLDGETATFQDWIGGNYVNIRRTSKA ?
[out] class 1

[in] Confirm or reject: Relative Activities of YS67: mutated penicillin expandase (DAOCS) with substitutions V275I and I305M (protein, UniProt P18548 1-311, looked up, variant V275I I305M) Deacetoxycephalosporin C …: MDTTVPTFSLAELQQGLHQDEFRRCLRDKGLFYLTDCGLTDTELKSAKDLVIDFFEHGSEAEKRAVTSPVPTMRRGFTGLESESTAQITNTGSYSDYSMCYSMGTADNLFPSGDFERIWTQYFDRQYTASRAVAREVLRATGTEPDGGVEAFLDCEPLLRFRYFPQVPEHRSAEEQPLRMAPHYDLSMVTLIQQTPCANGFVSLQAEVGGAFTDLPYRPDAVLVFCGAIATLVTGGQVKAPRHHVAAPRRDQIAGSSRTSSVFFLRPNADFTFSIPLARECGFDVSLDGETATFQDWIGGNYVNMRRTSKA lies strictly below 600%
[out] class 1

[in] # TODO verify Relative Activities < 600% strictly for this molecule: YS74: combined DAOCS mutant, mutated sites 275I, 304K, 305L (protein, UniProt P18548 1-311, looked up, variant V275I N304K I305L) Deacetoxycephalosporin C …: MDTTVPTFSLAELQQGLHQDEFRRCLRDKGLFYLTDCGLTDTELKSAKDLVIDFFEHGSEAEKRAVTSPVPTMRRGFTGLESESTAQITNTGSYSDYSMCYSMGTADNLFPSGDFERIWTQYFDRQYTASRAVAREVLRATGTEPDGGVEAFLDCEPLLRFRYFPQVPEHRSAEEQPLRMAPHYDLSMVTLIQQTPCANGFVSLQAEVGGAFTDLPYRPDAVLVFCGAIATLVTGGQVKAPRHHVAAPRRDQIAGSSRTSSVFFLRPNADFTFSIPLARECGFDVSLDGETATFQDWIGGNYVKLRRTSKA
[out] class 1

[in] Is Relative Activities strictly under 600% for the entry YS81: combined DAOCS mutant, mutated sites 275I, 281Y, 305M (protein, UniProt P18548 1-311, looked up, variant V275I C281Y I305M) Deacetoxycephalosporin C …: MDTTVPTFSLAELQQGLHQDEFRRCLRDKGLFYLTDCGLTDTELKSAKDLVIDFFEHGSEAEKRAVTSPVPTMRRGFTGLESESTAQITNTGSYSDYSMCYSMGTADNLFPSGDFERIWTQYFDRQYTASRAVAREVLRATGTEPDGGVEAFLDCEPLLRFRYFPQVPEHRSAEEQPLRMAPHYDLSMVTLIQQTPCANGFVSLQAEVGGAFTDLPYRPDAVLVFCGAIATLVTGGQVKAPRHHVAAPRRDQIAGSSRTSSVFFLRPNADFTFSIPLAREYGFDVSLDGETATFQDWIGGNYVNMRRTSKA ?
[out] class 0

The measurements presented in this section are drawn from patent US6905854B2.
